test: Phase II study 2 x 90 mg i.m. Days 1 and 8 (A014): plasma PK of teverelix; format: in vivo; details: male, human, im, 90 mg, Day 1 (Dose 1): 1 x 90 mg i.m., N=14, read-out: AUC (0-t) Geometric mean
Counter-ions that a name gives are not always drawn. Non-standard residues stand in square brackets, D forms with d. Residues, ends and D or L forms follow the SMILES beside them. dPhe(4-Cl) = N[C@H](Cc1ccc(Cl)cc1)C(=O)O; d2Nal = N[C@H](Cc1ccc2ccccc2c1)C(=O)O; d(hCit) = NC(=O)NCCCC[C@@H](N)C(=O)O; Lys(iPr) = CC(C)NCCCC[C@H](N)C(=O)O; d3Pal = N[C@H](Cc1cccnc1)C(=O)O
MEASUREMENT NAME: AUC(0-t) (ng·h/mL)
Please give a number only; it is taken to be in ng·h/mL.

Quick one: AUC(0-t) of CC(=O)N[C@H](Cc1ccc2ccccc2c1)C(=O)N[C@H](Cc1ccc(Cl)cc1)C(=O)N[C@H](Cc1cccnc1)C(=O)N[C@@H](CO)C(=O)N[C@@H](Cc1ccc(O)cc1)C(=O)N[C@H](CCCCNC(N)=O)C(=O)N[C@@H](CC(C)C)C(=O)N[C@@H](CCCCNC(C)C)C(=O)N1CCC[C@H]1C(=O)N[C@H](C)C(N)=O [Teverelix TFA, teverelix trifluoroacetate] (Ac-[d2Nal][dPhe(4-Cl)][d3Pal]SY[d(hCit)]L[Lys(iPr)]P[dA]-NH2) ?
1730

====

assay: Phase II study 2 x 90 mg i.m. Days 1 and 8 (A014): plasma PK of teverelix; format: in vivo; details: male, human, im, 90 mg, Day 8 (Dose 2): 1 x 90 mg i.m., N=14, read-out: AUC (0-t) Geometric mean
Where a name gives a salt, the structure may show the parent alone. Non-standard residues stand in square brackets, D forms with d. Residues, ends and D or L forms follow the SMILES beside them. dPhe(4-Cl) = N[C@H](Cc1ccc(Cl)cc1)C(=O)O; d2Nal = N[C@H](Cc1ccc2ccccc2c1)C(=O)O; d(hCit) = NC(=O)NCCCC[C@@H](N)C(=O)O; Lys(iPr) = CC(C)NCCCC[C@H](N)C(=O)O; d3Pal = N[C@H](Cc1cccnc1)C(=O)O
MEASUREMENT NAME: AUC(0-t) (ng·h/mL)
Quick reminder: number only, in ng·h/mL, skip the unit.

Entry CC(=O)N[C@H](Cc1ccc2ccccc2c1)C(=O)N[C@H](Cc1ccc(Cl)cc1)C(=O)N[C@H](Cc1cccnc1)C(=O)N[C@@H](CO)C(=O)N[C@@H](Cc1ccc(O)cc1)C(=O)N[C@H](CCCCNC(N)=O)C(=O)N[C@@H](CC(C)C)C(=O)N[C@@H](CCCCNC(C)C)C(=O)N1CCC[C@H]1C(=O)N[C@H](C)C(N)=O [Teverelix TFA, teverelix trifluoroacetate] (Ac-[d2Nal][dPhe(4-Cl)][d3Pal]SY[d(hCit)]L[Lys(iPr)]P[dA]-NH2) : reported AUC(0-t) = ?
8360
